- Tested on: KHYG-1 (IL-2 2.5 ng/mL);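 further: normalised to DMSO-only wells as negative and benzethonium chloride as positive control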
- assay comment: percent inhibition of viability; higher = more inhibition
- condition set: 72 h; 10 nM
outcome measure: percent inhibition of viability (%)

# compound, assay target, outcome measure, unit string, result
rows = [
    ("N#CC(c1ccnc(OCc2ccc(CN3CCOCC3)cc2)n1)c1nc2ccccc2s1 (stereo unspecified) [Bentamapimod] (max concentration tested 10000 nM)", "KHYG-1 (IL-2 2.5 ng/mL)", "percent inhibition of viability", "%", -1.53),
    ("CNC(=O)c1ccc(N2C(=S)N(c3ccc(C#N)c(C(F)(F)F)c3)C(=O)C2(C)C)cc1F [Enzalutamide] (max concentration tested 10000 nM)", "KHYG-1 (IL-2 2.5 ng/mL)", "percent inhibition of viability", "%", -4.23),
    ("CC(=O)NCC(=O)N1[C@@H]2CC[C@H]1c1ccc(Nc3ncc(C(F)(F)F)c(NC4CCC4)n3)cc12 (max concentration tested 10000 nM)", "KHYG-1 (IL-2 2.5 ng/mL)", "percent inhibition of viability", "%", 7.98),
    ("COc1cccc2c1c(O)c(C(=O)N(C)c1ccc(C(F)(F)F)cc1)c(=O)n2C [Tasquinimod] (max concentration tested 10000 nM)", "KHYG-1 (IL-2 2.5 ng/mL)", "percent inhibition of viability", "%", 0.19),
    ("COc1cc(Nc2ncc(F)c(Nc3ccc4c(n3)NC(=O)C(C)(C)O4)n2)cc(OC)c1OC [Tamatinib] (max concentration tested 10000 nM)", "KHYG-1 (IL-2 2.5 ng/mL)", "percent inhibition of viability", "%", -0.18),
    ("Cc1cc(C(C)Nc2ccccc2)c2nc(N3CCOCC3)cc(=O)n2c1 (stereo unspecified) [TGX-221] (max concentration tested 10000 nM)", "KHYG-1 (IL-2 2.5 ng/mL)", "percent inhibition of viability", "%", 11.7),
]

----------
Catalogue of drug sensitivity score readings, one per entry.
- System: normal primary NK cells, pool 3 (3 donors) (IL-2 2.5 ng/mL)
- assay comment: drug sensitivity score (DSS) (DSS units); higher = more sensitive; extreme values may be limits of the assay
- condition set: 72 h

# compound, drug sensitivity score
rows = [
    ("CO[C@H]1C[C@@H]2CC[C@@H](C)[C@@](O)(O2)C(=O)C(=O)N2CCCC[C@H]2C(=O)O[C@H]([C@H](C)C[C@@H]2CC[C@@H](OC(=O)C(C)(CO)CO)[C@H](OC)C2)CC(=O)[C@H](C)/C=C(\\C)[C@@H](O)[C@@H](OC)C(=O)[C@H](C)C[C@H](C)/C=C/C=C/C=C/1C [Temsirolimus] (max concentration tested 100 nM)", 0.84),
    ("OC[C@H]1O[C@@H](n2cnc3c2N=CNC[C@H]3O)C[C@@H]1O [Pentostatin] (max concentration tested 10000 nM)", 0),
    ("S=P(N1CC1)(N1CC1)N1CC1 [Thio-TEPA] (max concentration tested 50000 nM)", 0),
    ("CCc1nc(-c2cccc(C)c2)c(-c2ccnc(NC(=O)c3ccccc3)c2)s1 [TAK-715] (max concentration tested 10000 nM)", 0.05),
    ("COc1cc2c(cc1O)CC[C@@H]1[C@@H]2CC[C@]2(C)[C@@H](O)CC[C@@H]12 [2-methoxyestradiol] (max concentration tested 10000 nM)", 0),
    ("CC(=O)NCC(=O)N1[C@@H]2CC[C@H]1c1ccc(Nc3ncc(C(F)(F)F)c(NC4CCC4)n3)cc12 (max concentration tested 10000 nM)", 10),
]
